Below, each of the molecules is paired with its reported solubility value.
test-summary: Solubility (Test F)
Type: physicochemical
protocol-conditions: arithmetic mean if run multiple times

| molecule | uom | sign-qualifier | solubility |
| --- | --- | --- | --- |
| CCOCC1(CNC(=O)[C@H]2[C@@H]3CC[C@@H](C3)[C@H]2NC(=O)c2cc(O[C@H]3CC[C@@](C)(C(=O)O)CC3)c(C#N)cc2OC)CCC1 | µM | = | 920 |
| COc1cc(C#N)c(O[C@H]2CC[C@@](C)(C(=O)O)CC2)cc1C(=O)N[C@@H]1[C@H]2CC[C@H](C2)[C@@H]1C(=O)NCC1(OC)CC1 | µM | = | 860 |
| COc1cc(F)c(O[C@H]2CC[C@@H](C(=O)O)CC2)cc1C(=O)N[C@@H]1[C@H]2CC[C@H](C2)[C@@H]1C(=O)Nc1cc(C#N)cc(C(F)(F)F)c1 | µM | > | 1000 |
| COc1cc(C#N)c(OC2CCC(C)(C(=O)O)CC2)cc1C(=O)NC1C(C(=O)NCC2(C)CCC2)C2CCC1N2CCC(F)(F)F (single isomer, unassigned) | µM | = | 420 |
| COc1cc(F)c(O[C@H]2CC[C@@H](C(=O)O)CC2)cc1C(=O)N[C@@H]1[C@H]2CC[C@H](C2)[C@@H]1C(=O)NC12CC(C1)C2 | µM | > | 1000 |
| COc1cc(F)c(O[C@H]2CC[C@@H](C(=O)O)CC2)cc1C(=O)N[C@@H]1[C@H]2CC[C@H](C2)[C@@H]1C(=O)Nc1ccc(C#N)c(C(F)(F)F)c1 | µM | = | 690 |
| COc1cc(F)c(O[C@H]2CC[C@@](C)(C(=O)O)CC2)cc1C(=O)N[C@@H]1CCC[C@@H]1C(=O)N[C@H](C)C(C)(C)C | µM | > | 1000 |
| COc1cc(F)c(O[C@H]2CC[C@@H](C(=O)O)CC2)cc1C(=O)N[C@@H]1[C@H]2CC[C@H](C2)[C@@H]1C(=O)NC(C)C | µM | = | 980 |
| COc1cc(C#N)c(O[C@H]2CC[C@@](C)(C(=O)O)CC2)cc1C(=O)N[C@@H]1[C@H]2CC[C@H](C2)[C@@H]1C(=O)NC1(C)CCC1 | µM | = | 800 |
| COc1cc(F)c(O[C@H]2CC[C@@H](C(=O)O)CC2)cc1C(=O)NC1=C(C(=O)Nc2ccc(F)c(C(F)(F)F)c2)CCC1 | µM | = | 400 |
| COc1cc(C#N)c(O[C@H]2CC[C@@](C)(C(=O)O)CC2)cc1C(=O)N[C@@H]1[C@H]2CC[C@H](C2)[C@@H]1C(=O)NCC1(CF)CC1 | µM | = | 880 |
| COc1cc(F)c(O[C@H]2CC[C@@H](C(=O)O)CC2)cc1C(=O)NC1=C(C(=O)Nc2ccc(F)c(C(F)(F)F)c2)CCCC1 | µM | = | 6.5 |

// provenance: patent US11667602B2
